experiment: Pharmacokinetics in healthy volunteers; details: human, in vivo
quantity name: half-life

Query :: Bench note: what half-life did Cn1cc(S(=O)(=O)[C@@](C)(F)C2CCN(C(=O)Nc3ccon3)CC2)c(C(F)F)n1 show?
Result :: ~15 h

###

assay: Pharmacokinetics in patients with stable HFrEF; assay type: in vivo; details: human, plasma; 50 mg BID, oral, with food; read-out: steady-state concentration
quantity name: concentration at 7 days

Query :: Bench note: what concentration at 7 days did Cn1cc(S(=O)(=O)[C@@](C)(F)C2CCN(C(=O)Nc3ccon3)CC2)c(C(F)F)n1 [Compound I] show?
Result :: 2000 to 3500 ng/mL
